Each recorded value in this set is attributed to patent US20240336681A1.

target: T1, human CD47 on cells (human, UniProt Q08722 19-323); experiment: flow cytometry on CD47-positive Expi293 cells, 50 nM antibody; MFI of the antibody over MFI of the isotype control
T1 construct: also called CD47 on Molm-13, OVCAR-3, Suit-2 MSLN, HL-60 cells, red blood cells and CD47-transfected CHO cells
T1 sequence (Q08722 19-323): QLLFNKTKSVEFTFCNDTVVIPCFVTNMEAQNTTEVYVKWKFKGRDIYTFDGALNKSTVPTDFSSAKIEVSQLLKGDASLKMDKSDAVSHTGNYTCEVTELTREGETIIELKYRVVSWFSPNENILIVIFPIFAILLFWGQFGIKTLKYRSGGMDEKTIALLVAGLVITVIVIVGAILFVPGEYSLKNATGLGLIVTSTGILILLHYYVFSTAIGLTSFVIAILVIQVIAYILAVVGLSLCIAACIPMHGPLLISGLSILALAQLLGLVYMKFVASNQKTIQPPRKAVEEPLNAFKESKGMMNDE
assay-metric: MFI ratio

1) 2D6-009 (antibody, IgG4, V domains shown) VH: QVQLVESGGGLVQPGGSLRLSCAASGYTFTSYDINWVRQAPGKGLEWVGWIYPRDGSPKYNEKFKGRFTISADTSKNTAYLQMNSLRAEDTAVYYCARSVYYGTQFAYWGQGTLVTVSS VL: DIVLTQSPSSLSASVGDRVTMSCKSSQSLLNSRTRKNYLAWYQQKPGKAPKLLIYWASTRDSGVPSRFSGSGSGTDFTLTISSLQPEDIATYYCKQSFNLVTFGGGTKLEIK	1.58
2) 2D6-006 (antibody, IgG4, V domains shown, also called VH2/VL2) VH: QVELVQSGPEVKKPGSSVKVSCKASGYTFPSYDINWVRQRPGQGLEWMGWIYPRDGSPKYNEKFKGRVTITADTSTSTAYMELHSLRSEDTAVYYCARSVYYGTQFAYWGQGTLVTVSA VL: DIVMTQSPSSLAVSLGERVTMSCKSSQSLLNSRTRKNYLAWYQQKPGQPPKLLIYWASTRDSGVPDRFSGSGSGTDFTLTISSLQAEDVAVYYCKQSFNLVTFGGGTKLEIK	3.12
3) 2D6-007 (antibody, IgG4, V domains shown, also called VH2/VL3) VH: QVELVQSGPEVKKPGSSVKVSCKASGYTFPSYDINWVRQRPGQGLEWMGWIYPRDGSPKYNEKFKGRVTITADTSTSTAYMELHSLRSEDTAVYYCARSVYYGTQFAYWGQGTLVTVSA VL: DIQMTQSPSSLSASVGDRVTITCKSSQSLLNSRTRKNYLAWYQQKPGKAPKLLIYWASTRDSGVPSRFSGSGSGTDFTLTISSLQPEDFATYYCKQSFNLVTFGQGTKVEIK	3.92
4) 2D6-004 (antibody, IgG4, V domains shown, also called VH1/VL4) VH: QVELVQSGAEVKKPGSSVKVSCKASGGTFPSYDINWVRQAPGQGLEWMGWIYPRDGSPKYNEKFKGRVTITADESTSTAYMELSSLRSEDTAVYYCARSVYYGTQFAYWGQGTLVTVSS VL: DIVMTQSPSSLSASVGDRVTITCKSSQSLLNSRTRKNYLAWYQQKPGKAPKLLIYWASTRDSGVPDRFSGSGSGTDFTLTISSLQPEDFATYYCKQSFNLVTFGQGTKVEIK	1.07
5) 2D6-008 (antibody, IgG4, V domains shown, also called VH2/VL4) VH: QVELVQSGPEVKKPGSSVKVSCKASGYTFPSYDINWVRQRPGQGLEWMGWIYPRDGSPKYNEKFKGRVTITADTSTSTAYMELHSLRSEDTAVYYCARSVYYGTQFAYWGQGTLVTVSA VL: DIVMTQSPSSLSASVGDRVTITCKSSQSLLNSRTRKNYLAWYQQKPGKAPKLLIYWASTRDSGVPDRFSGSGSGTDFTLTISSLQPEDFATYYCKQSFNLVTFGQGTKVEIK	3.29
